Biological target: SARS-CoV-2 full length spike protein (wild type) (SARS-CoV-2, UniProt P0DTC2 14-1273)
Measured parameter: median fluorescence intensity, fold over isotype control

• antibody 264 (antibody, V domains shown) VH: QVHLVESGGGVVQPGRSLRLSCAASGFTLTSYAMHWVRQAPGKGLEWVALISYDGSVKKYAESVKGRITVSGDNSRNTLHLQINTLRADDTAVYYCVRGGVSGPNSFDLWGQGTMVTVSS VL: DVVMTQSPLSLPVTLGQPASISCRSSQSLEYSDGNTYVNWFQQRPGQSPRRLIYQVSNRASGVPDRFSGSGSGTDFTLQISRVEAEDVGIYYCMQGTHWPVTFGQGTKVEIK = 10.3 fold over isotype

# credit: patent US20210292393A1
